# measurement.notes: log P determination by HPLC on reversed-phase columns (C 18), analogously to OECD Guideline 117
# Format: physicochemical
# stated.conditions: LC-MS in the acidic range, pH 2.7, 0.1% aqueous formic acid / acetonitrile, HPLC reversed-phase C 18
Please provide measured logP (HCOOH) for the entries that follow.
Lab note: jot the number down without any unit.

Field request: logP (HCOOH) | item: `Cc1ccc(-n2c(=O)n(C3CC3)c(=O)n2Cc2ccccc2)cc1SCC(F)(F)F`
3.81

Field request: logP (HCOOH) | item: `Cc1cc(F)c(-n2c(=O)n(CC3CC3)c(=O)n2C)cc1SCC(F)(F)F`
3.39

Field request: logP (HCOOH) | item: `Cc1cc(F)c(-n2c(=O)n(C3CC3)c(=O)n2C(C)C)cc1SCC(F)(F)F`
3.59

Field request: logP (HCOOH) | item: C=CCn1c(=O)n(CC(F)(F)F)n(-c2cc([S+]([O-])CC(F)(F)F)c(C)cc2F)c1=O (stereo not shown)
2.72
